Data origin: ChEMBL document CHEMBL3616390

Measurement Target: UniProtKB P08173
Protocol Text: Agonist activity at human muscarinic M4 receptor expressed in CHO cells after 30 mins by GTPgamma35S binding assay relative to acetylcholine
Format: functional, cell-based
For each of the compounds below, state its Efficacy.
Give bare numbers, in %.

Solved cases below.
CN1CCCC/C1=N\c1ccc2c(c1)[C@@H](NC(=O)c1ccc(Br)cc1)[C@H](O)C2 ... 34
C#CCO[C@H]1CN2CCC1CC2 ... 22.2
CCCCCCOc1nsnc1C1=CCCN(C)C1 ... 48.7
CO/N=C(\C#N)[C@H]1CN2CCC1CC2 ... 21.3

Now, please, on to the next compound.
Memo: `CC(=O)OCC[N+](C)(C)C` , reported Efficacy: 93.4

----------
Measurement Target: Muscarinic acetylcholine receptor M2 (Homo sapiens, UniProt P08172)
Protocol Text: Agonist activity at human muscarinic M2 receptor expressed in CHO cells after 30 mins by GTPgamma35S binding assay
pEC50: −log10 of the molar value.
Mark False for pEC50 values under 7, and True for everything at or above.

CN1CCCC/C1=N\c1ccc2c(c1)[C@@H](NC(=O)c1ccc(Br)cc1)[C@H](O)C2 ... True
C/C(=N\c1ccc2c(c1)[C@@H](NC(=O)c1ccc(Br)cc1)[C@H](O)C2)NCCc1ccc(F)cc1 ... False
C/C(=N\c1ccc2c(c1)[C@@H](NC(=O)c1ccc(Br)cc1)[C@H](O)C2)Nc1ccc(F)cc1 ... False
C/C(=N\c1ccc2c(c1)[C@@H](NC(=O)c1ccc(-c3ccccc3)cc1)[C@H](O)C2)N(C)Cc1ccc(F)cc1 ... False
C/C(=N\c1ccc2c(c1)[C@@H](NC(=O)c1ccc(Br)cc1)[C@H](O)C2)NCc1cccc(F)c1 ... False

Reported pEC50 at or above 7? `C/C(=N\c1ccc2c(c1)[C@@H](NC(=O)c1ccc(Br)cc1)[C@H](O)C2)N(C)CCc1ccc(F)cc1`
False

----------
Measurement Target: Muscarinic acetylcholine receptor M2 (Homo sapiens) (UniProt P08172)
Sequence (whole entry): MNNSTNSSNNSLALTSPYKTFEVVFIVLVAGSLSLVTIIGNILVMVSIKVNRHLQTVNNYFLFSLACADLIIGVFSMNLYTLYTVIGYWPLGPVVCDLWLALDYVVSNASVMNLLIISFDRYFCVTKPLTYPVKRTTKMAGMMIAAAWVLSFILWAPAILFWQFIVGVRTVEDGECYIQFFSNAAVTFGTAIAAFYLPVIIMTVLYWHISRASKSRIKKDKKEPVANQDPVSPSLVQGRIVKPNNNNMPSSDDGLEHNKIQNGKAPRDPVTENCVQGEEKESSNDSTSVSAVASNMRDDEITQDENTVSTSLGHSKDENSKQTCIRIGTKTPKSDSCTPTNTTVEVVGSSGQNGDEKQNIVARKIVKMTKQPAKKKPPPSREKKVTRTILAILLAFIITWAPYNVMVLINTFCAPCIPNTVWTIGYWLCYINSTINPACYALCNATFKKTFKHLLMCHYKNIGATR
Protocol Text: Agonist activity at human muscarinic M2 receptor expressed in CHO cells after 30 mins by GTPgamma35S binding assay relative to oxotremorine-M
Format: functional, cell-based
Would you mind telling me the reported Efficacy of each entry?
Numbers only, in %.

C/C(=N\c1ccc2c(c1)[C@@H](NC(=O)c1ccc(C(F)(F)F)cc1)[C@H](O)C2)N(C)Cc1ccc(F)cc1 ... 25.4

# per-item lookup of Efficacy; items listed below
1. C/C(=N\c1ccc2c(c1)[C@@H](NC(=O)c1ccc(Cl)cc1)[C@H](O)C2)N(C)Cc1ccc(F)cc1
2. C/C(=N\c1ccc2c(c1)[C@@H](NC(=O)c1ccc(-c3ccccc3)cc1)[C@H](O)C2)N(C)Cc1ccc(F)cc1
3. C/C(=N\c1ccc2c(c1)[C@@H](NC(=O)c1ccc(Br)cc1)[C@H](O)C2)N(C)CCc1ccc(F)cc1
4. C/C(=N\c1ccc2c(c1)[C@@H](NC(=O)c1ccc(Br)cc1)[C@H](O)C2)Nc1ccc(F)cc1

1. 45
2. 34.6
3. 20.8
4. 25.2

----------
Measurement Target: Muscarinic acetylcholine receptor M1 (Homo sapiens)
Protocol Text: Agonist activity at human muscarinic M1 receptor expressed in CHO cells after 30 mins by GTPgamma35S binding assay relative to oxotremorine-M
Format: functional, cell-based
Readout Label: Efficacy

C/C(=N\c1ccc2c(c1)[C@@H](NC(=O)c1ccc(Cl)cc1)[C@H](O)C2)N(C)Cc1ccc(F)cc1 ... 112%
C/C(=N\c1ccc2c(c1)[C@@H](NC(=O)c1ccc(F)cc1)[C@H](O)C2)N(C)Cc1ccc(F)cc1 ... 76.6%
C/C(=N\c1ccc2c(c1)[C@@H](NC(=O)c1ccc(Br)cc1)[C@H](O)C2)Nc1ccc(F)cc1 ... 79.4%
O=C(N[C@@H]1c2cc(/N=C(/Nc3ccc(F)cc3)C(F)(F)F)ccc2C[C@H]1O)c1ccc(Br)cc1 ... < 20%
C/C(=N\c1ccc2c(c1)[C@@H](NC(=O)c1ccc(C(F)(F)F)cc1)[C@H](O)C2)N(C)Cc1ccc(F)cc1 ... 106%

Batch request: Efficacy per item, same order as input.
1. COc1ccc(CN/C(C)=N/c2ccc3c(c2)[C@@H](NC(=O)c2ccc(Br)cc2)[C@H](O)C3)cc1
2. C/C(=N\c1ccc2c(c1)[C@@H](NC(=O)c1ccc(Br)cc1)[C@H](O)C2)NCc1ccc(F)cc1
3. C/C(=N\c1ccc2c(c1)[C@@H](NC(=O)c1ccc(Br)cc1)[C@H](O)C2)N(C)Cc1ccc(F)cc1

["32.1%", "89.9%", "107%"]

----------
Measurement Target: Muscarinic acetylcholine receptor M1 (Homo sapiens, UniProt P11229)
Sequence (P11229 whole entry): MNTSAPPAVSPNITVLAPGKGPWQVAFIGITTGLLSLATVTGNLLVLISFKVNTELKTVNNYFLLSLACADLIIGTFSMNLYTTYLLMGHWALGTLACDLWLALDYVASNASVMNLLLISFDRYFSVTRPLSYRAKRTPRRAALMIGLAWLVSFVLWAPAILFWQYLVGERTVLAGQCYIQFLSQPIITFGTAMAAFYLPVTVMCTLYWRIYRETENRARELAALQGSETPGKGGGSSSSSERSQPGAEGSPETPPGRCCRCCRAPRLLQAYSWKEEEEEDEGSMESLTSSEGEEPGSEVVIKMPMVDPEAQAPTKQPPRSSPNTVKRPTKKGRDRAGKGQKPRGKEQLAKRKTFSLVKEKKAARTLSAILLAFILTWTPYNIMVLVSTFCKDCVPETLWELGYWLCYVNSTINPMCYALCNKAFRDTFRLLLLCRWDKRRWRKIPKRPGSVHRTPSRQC
Protocol Text: Agonist activity at human muscarinic M1 receptor expressed in CHO cells after 30 mins by GTPgamma35S binding assay
Readout Label: log10 EC50 (log10 of the value in nM)
Would you kindly interpret these values as log10 of EC50 expressed in nM?

Some solved cases for reference:
C#CCO[C@H]1CN2CCC1CC2 ... 2.91
COc1ccc(N/C(C)=N/c2ccc3c(c2)[C@@H](NC(=O)c2ccc(Br)cc2)[C@H](O)C3)cc1 ... 2.02
COc1ccc(CCN/C(C)=N/c2ccc3c(c2)[C@@H](NC(=O)c2ccc(Br)cc2)[C@H](O)C3)cc1 ... 2.63
C/C(=N\c1ccc2c(c1)[C@@H](NC(=O)c1ccc(Br)cc1)[C@H](O)C2)Nc1ccc(F)cc1 ... 1.71

Hi team, please reply with log10 EC50 for each item in this list.
1. CN1CCCC/C1=N\c1ccc2c(c1)[C@@H](NC(=O)c1ccc(Br)cc1)[C@H](O)C2
2. C/C(=N\c1ccc2c(c1)[C@@H](NC(=O)c1ccc(-c3ccccc3)cc1)[C@H](O)C2)N(C)Cc1ccc(F)cc1
3. C/C(=N\c1ccc2c(c1)[C@@H](NC(=O)c1ccc(Br)cc1)[C@H](O)C2)N(C)c1ccc(F)cc1
4. C/C(=N\c1ccc2c(c1)[C@@H](NC(=O)c1ccc(Br)cc1)[C@H](O)C2)NCCc1ccc(F)cc1

1. 1.90
2. 1.36
3. 2.07
4. 2.26

----------
Measurement Target: Muscarinic acetylcholine receptor M2 (Homo sapiens)
Protocol Text: Agonist activity at human muscarinic M2 receptor expressed in CHO cells after 30 mins by GTPgamma35S binding assay relative to oxotremorine-M
Assay type: functional, cell-based
Readout Label: Efficacy

Worked cases, answers included:
COc1ccc(N/C(C)=N/c2ccc3c(c2)[C@@H](NC(=O)c2ccc(Br)cc2)[C@H](O)C3)cc1 ... < 20%
O=C(N[C@@H]1c2cc(/N=C(/Nc3ccc(F)cc3)C(F)(F)F)ccc2C[C@H]1O)c1ccc(Br)cc1 ... < 20%
COc1ccccc1CN/C(C)=N/c1ccc2c(c1)[C@@H](NC(=O)c1ccc(Br)cc1)[C@H](O)C2 ... < 20%

Could you now look at the following compound, please?
So for `COc1ccc(CN/C(C)=N/c2ccc3c(c2)[C@@H](NC(=O)c2ccc(Br)cc2)[C@H](O)C3)cc1` , the logged Efficacy turned out to be < 20%

----------
Measurement Target: Muscarinic acetylcholine receptor M4 (Homo sapiens, UniProt P08173)
Sequence (P08173 whole entry): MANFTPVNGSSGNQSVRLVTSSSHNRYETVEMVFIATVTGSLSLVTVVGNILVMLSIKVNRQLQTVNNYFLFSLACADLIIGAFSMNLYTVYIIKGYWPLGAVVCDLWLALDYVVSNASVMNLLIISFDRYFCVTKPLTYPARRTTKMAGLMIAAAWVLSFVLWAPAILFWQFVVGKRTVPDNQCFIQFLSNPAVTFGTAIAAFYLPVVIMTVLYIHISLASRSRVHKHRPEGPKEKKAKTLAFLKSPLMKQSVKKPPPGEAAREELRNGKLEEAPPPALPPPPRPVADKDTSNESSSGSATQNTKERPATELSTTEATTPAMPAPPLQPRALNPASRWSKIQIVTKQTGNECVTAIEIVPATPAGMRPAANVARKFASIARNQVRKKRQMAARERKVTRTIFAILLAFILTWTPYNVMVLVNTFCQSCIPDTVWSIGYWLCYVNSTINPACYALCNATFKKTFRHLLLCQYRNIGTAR
Protocol Text: Agonist activity at human muscarinic M4 receptor expressed in CHO cells after 30 mins by GTPgamma35S binding assay
Assay type: functional, cell-based
# if measured EC50 < 400 nM: t  # else: f

Solved entries:
C/C(=N\c1ccc2c(c1)[C@@H](NC(=O)c1ccc(Br)cc1)[C@H](O)C2)NCc1ccc(F)cc1 ... t
C/C(=N\c1ccc2c(c1)[C@@H](NC(=O)c1ccc(Br)cc1)[C@H](O)C2)NCc1ccccc1F ... t
C/C(=N\c1ccc2c(c1)[C@@H](NC(=O)c1ccc(Br)cc1)[C@H](O)C2)Nc1ccc(F)cc1 ... f
C#CCO[C@H]1CN2CCC1CC2 ... f

Please turn your attention to the following entry.
Lab log: compare recorded EC50 with 400 nM; is it strictly lower for `C/C(=N\c1ccc2c(c1)[C@@H](NC(=O)c1ccc(C)cc1)[C@H](O)C2)N(C)Cc1ccc(F)cc1` ?
t
